tested on: Hyperlipidemic Hamster; assay: In Vivo Assay of Hypolipidemic Agents Using the Hyperlipidemic Hamster; conditions: Mesocricetus auratus, po, 168 h, 5 mg/kg once daily oral, 7 days; percent change versus control, negative = lowering; read-out: % Reduction (in vivo) Cholest. Esters
RESULT_TYPE: change in vivo at 5 mg/kg (%)
Give just the numeric value; % need not be written.

Example results:
* COc1ccc([C@@H]2[C@H](CCCc3ccccc3)C(=O)N2c2ccc(OC)cc2)cc1 [Example 2] | -37
* COc1ccc([C@@H]2[C@@H](CCCc3ccccc3)C(=O)N2c2ccc(OC)cc2)cc1 [Example 9] | -66

Input: Indicate its recorded change in vivo at 5 mg/kg; the compound in question is COc1ccc(C2C(CCCc3ccccc3)C(=O)N2c2ccc(OC)cc2)cc1 (stereo not shown) [Example 1]
Output: 0

Input: Indicate its recorded change in vivo at 5 mg/kg; the compound in question is COc1ccc(N2C(=O)[C@@H](CCCc3ccccc3)[C@H]2c2ccc(O)cc2)cc1 (relative stereo) [Example 1L]
Output: -30
